Test: ATG_PPRE_CIS: Attagene CIS-FACTORIAL HepG2 Assay for human Peroxisome Proliferator-activated Response Element (PPRE) (AID 2282958)
Details: HepG2 PPRE cis-element reporter, Attagene transcription factor profiling; actives raise or lower the signal
Active and inactive are the calls of the source. How the source made its calls: active means hit-call score of the fitted dose curve at least 0.9, where 1 is the maximum; inactive means score below 0.9.
Outcomes you can answer with include only these: y for active, n for inactive

Ask: What is the recorded call for this molecule in the test? CC(=O)C1(C)CC2=C(CCCC2(C)C)CC1C (centres undefined)
Result: y

Ask: Consider next the molecule O=C(Nc1ccc([N+](=O)[O-])cc1)Nc1ccc([N+](=O)[O-])cc1 (tested in a mixture with another compound) in the same way.
Result: n

---

Read-out: serum amyloid A (SAA), SAA1 (gene 6288)
Assay: BSK_CASM3C_SAA: BioMAP Diversity Plus: CASM3C Assay for serum amyloid A (SAA) Biomarker Activity (AID 2283049);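 further: SAA protein level quantified by ELISA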
Conditions: primary human coronary artery smooth muscle cells; actives raise or lower the signal
Calls of active or inactive are those of the source. Rule for the calls: active = hit-call score of the fitted dose curve at least 0.9, where 1 is the maximum; inactive = score below 0.9.
Quantity: AC50

{"Compound": "CC1(C)C2=CCCC(C)(C)[C@]23CC[C@H]1C3", "AC50": "20 µM (active)"}
{"Compound": "CC(=O)c1c(C)c([N+](=O)[O-])c(C(C)(C)C)c([N+](=O)[O-])c1C", "AC50": "inactive"}
{"Compound": "CN(c1nccc(=O)[nH]1)C1CCN(c2nc3ccccc3n2Cc2ccc(F)cc2)CC1", "AC50": "inactive"}
{"Compound": "c1ccc(CCc2ccccc2)cc1", "AC50": "26.4 µM (active)"}
{"Compound": "CS(=O)(=O)OCCCCOS(C)(=O)=O", "AC50": "inactive"}

Ask: # get_value(readout='AC50', item= `COc1ccc(OC)c(N=Nc2c(O)ccc3ccccc23)c1` )
Result: inactive

Ask: Consider next the compound `CCOC(=O)C(C#N)=C(c1ccccc1)c1ccccc1` in the same way.
Result: inactive

Ask: Consider next the compound `C=C(C)[C@H]1CC=C(C)C(=O)C1` in the same way.
Result: inactive

Ask: Consider next the compound CCC(C)c1cc([N+](=O)[O-])cc([N+](=O)[O-])c1OC(=O)OC(C)C (configuration not stated) in the same way.
Result: 34.1 µM (active)

Ask: Consider next the compound `c1ccc2cc(Nc3ccc(Nc4ccc5ccccc5c4)cc3)ccc2c1` in the same way.
Result: inactive

Ask: Consider next the compound `C=C(C)C(=O)OCCOCCOCCOCCOC(=O)C(=C)C` in the same way.
Result: inactive

Ask: Consider next the compound `C[C@@H]1CCN(C(=O)[C@H](CCCN=C(N)N)NS(=O)(=O)c2cccc3c2NC[C@H](C)C3)[C@@H](C(=O)O)C1` in the same way.
Result: inactive

Ask: Consider next the compound `O=C1OC2(c3ccccc31)c1ccc(O)c(Br)c1Oc1c2ccc(O)c1Br` in the same way.
Result: inactive

Ask: Consider next the compound `CCN(CC)C(=O)N(CC)CC` in the same way.
Result: inactive

Ask: Consider next the compound `Cc1cc(CCC(=O)OCCOCCOCCOC(=O)CCc2cc(C)c(O)c(C(C)(C)C)c2)cc(C(C)(C)C)c1O` in the same way.
Result: inactive

Ask: Consider next the compound `c1ccc(Oc2ccccc2)cc1` in the same way.
Result: inactive

Ask: Consider next the compound `CCCCN(CCCC)C(=O)N(CCCC)CCCC` in the same way.
Result: 10.8 µM (active)

Ask: Consider next the compound `C=C(C)C(=O)OCC(CC)(COC(=O)C(=C)C)COC(=O)C(=C)C` in the same way.
Result: inactive

Ask: Consider next the compound `CCCCOC(=O)CCCCCCCC(=O)OCCCC` in the same way.
Result: inactive

Ask: Consider next the compound `O=C1c2ccccc2C(=O)c2c(O)ccc(O)c21` in the same way.
Result: inactive

Ask: Consider next the compound `CSCCC=O` in the same way.
Result: inactive

Ask: Consider next the compound `Oc1c(Cl)cc(Cl)c(Cl)c1Cc1c(O)c(Cl)cc(Cl)c1Cl` in the same way.
Result: 3.97 µM (active)

Ask: Consider next the compound `O=C(Nc1ccc2c(O)c(N=Nc3ccc(N=Nc4ccc(S(=O)(=O)O)cc4)cc3)c(S(=O)(=O)O)cc2c1)c1ccccc1` in the same way.
Result: inactive

Ask: Consider next the compound CC(CN=Cc1ccccc1O)N=Cc1ccccc1O (configuration not stated) in the same way.
Result: inactive

Ask: Consider next the compound `CC=Cc1ccc(OCC)c(O)c1` in the same way.
Result: inactive

Ask: Consider next the compound CC(=O)C1(C)CC2=C(CCCC2(C)C)CC1C (configuration not stated) in the same way.
Result: 11.9 µM (active)

Ask: Consider next the compound `CC(=O)Nc1ccc(C(=O)CCl)cc1` in the same way.
Result: inactive

---

Read-out: Plasminogen activator inhibitor-1 (PAI1), SERPINE1 (gene 5054)
Assay: BSK_BE3C_PAI1: BioMAP Diversity Plus: BE3C Assay for Plasminogen activator inhibitor-1 (PAI1) Biomarker Activity (AID 2283037)
Details: primary human bronchial epithelial cells; actives raise or lower the signal
The source made the active and inactive calls. Rule for the calls: active = hit-call score of the fitted dose curve at least 0.9, where 1 is the maximum; inactive = score below 0.9.
Outcomes you can answer with include only these: True for active, False for inactive

Answered cases to consult:
{"Compound": "CC=Cc1ccc(OCC)c(O)c1", "Label value": "False"}
{"Compound": "COc1cc(Cl)c(OC)cc1N", "Label value": "False"}
{"Compound": "C=C(C)C(=O)OCCOCCOCCOC(=O)C(=C)C", "Label value": "False"}

Now consider the entry below.
Ask: What is the recorded call for this compound in the test? `CCCCCC(C=O)=Cc1ccccc1`
Result: False

---

Read-out: Interleukin 2 (IL2), IL2 (gene 3558)
Assay: BSK_BT_xIL2: BioMAP Diversity Plus: BT Assay for Interleukin 2 (IL2) Biomarker Activity (AID 2284245)
Conditions: primary human B cells with PBMC
Activity calls are given as the source filed them. How the source made its calls: active means hit-call score of the fitted dose curve at least 0.9, where 1 is the maximum; inactive means score below 0.9.
Quantity: AC50

The cases that follow already have their AC50 on record.
{"Record smiles": "CSCCC=O", "AC50": "inactive"}
{"Record smiles": "CC1(C)C2=CCCC(C)(C)[C@]23CC[C@H]1C3", "AC50": "inactive"}
{"Record smiles": "CC=Cc1ccc(OCC)c(O)c1", "AC50": "inactive"}
{"Record smiles": "IC(I)I", "AC50": "inactive"}
{"Record smiles": "c1ccc(CCc2ccccc2)cc1", "AC50": "inactive"}

Ask: # get_value(readout='AC50', item= `C=C(C)C(=O)OCC(CC)(COC(=O)C(=C)C)COC(=O)C(=C)C` )
Result: 19.7 µM (active)

Ask: Consider next the molecule `CCCCCCCCCCCCCCCC(=O)OC/C=C(C)/C=C/C=C(C)/C=C/C1=C(C)CCCC1(C)C` in the same way.
Result: inactive

Ask: Consider next the molecule `O=C1OC2(c3ccccc31)c1ccc(O)c(Br)c1Oc1c2ccc(O)c1Br` in the same way.
Result: inactive

Ask: Consider next the molecule `CCCCN(CCCC)C(=O)N(CCCC)CCCC` in the same way.
Result: 32.5 µM (active)

---

Assay: ATG_PBREM_CIS: Attagene CIS-FACTORIAL HepG2 Assay for human Phenobarbital-responsive Enhancer Module (PBREM) (AID 2282955)
Details: HepG2 PBREM cis-reporter, Attagene multiplexed transcription; actives raise or lower the signal
The source made the active and inactive calls. How the source made its calls: active means hit-call score of the fitted dose curve at least 0.9, where 1 is the maximum; inactive means score below 0.9.
Outcomes you can answer with include only these: active, inactive

Ask: What is the recorded call for this compound in the test? `CCCCCCOC(=O)CCC`
Result: inactive

Ask: Consider next the compound `COS(=O)(=O)O` in the same way.
Result: inactive

Ask: Consider next the compound `O=C1OC2(c3ccccc31)c1ccc(O)c(Br)c1Oc1c2ccc(O)c1Br` in the same way.
Result: active

Ask: Consider next the compound CCCC(=O)C(CC)Sc1ccoc1C (stereo not given) in the same way.
Result: inactive

Ask: Consider next the compound `CC1=NN(c2ccc(S(=O)(=O)O)cc2)C(=O)C1` in the same way.
Result: inactive

Ask: Consider next the compound `CN(C)c1ccncc1` in the same way.
Result: inactive

Ask: Consider next the compound `CCc1cc(Cc2cc(CC)cc(C(C)(C)C)c2O)c(O)c(C(C)(C)C)c1` in the same way.
Result: inactive

Ask: Consider next the compound `CC(C)(N=C=O)c1cccc(C(C)(C)N=C=O)c1` in the same way.
Result: inactive

Ask: Consider next the compound C=CC(C)C#N (stereo not given) in the same way.
Result: inactive

Ask: Consider next the compound `CC1=C(Br)C(=O)C(Br)=C/C1=C(/c1ccccc1S(=O)(=O)O)c1cc(Br)c(O)c(Br)c1C` in the same way.
Result: inactive

---

Assay: ATG_PPRE_CIS: Attagene CIS-FACTORIAL HepG2 Assay for human Peroxisome Proliferator-activated Response Element (PPRE) (AID 2282958)
Details: HepG2 PPRE cis-element reporter, Attagene transcription factor profiling; actives raise or lower the signal
Activity calls are given as the source filed them. The calls were made as follows: active = hit-call score of the fitted dose curve at least 0.9, where 1 is the maximum; inactive = score below 0.9.
Outcomes you can answer with include only these: label 1 (active), label 0 (inactive)

{"Record smiles": "CCCCCCCCc1ccc(S(=O)(=O)O)cc1", "Label value": "label 0"}
{"Record smiles": "O=Cc1ccccc1S(=O)(=O)O", "Label value": "label 0"}
{"Record smiles": "C=Cc1ccncc1", "Label value": "label 1"}
{"Record smiles": "CCc1ccc(O)cc1", "Label value": "label 0"}
{"Record smiles": "Oc1ccc2cc(SSc3ccc4cc(O)ccc4c3)ccc2c1", "Label value": "label 1"}
{"Record smiles": "CCC1CCCCC1", "Label value": "label 0"}
{"Record smiles": "CCCSc1ccc2nc(NC(=O)OC)[nH]c2c1", "Label value": "label 0"}
{"Record smiles": "O=c1c(O)c(-c2ccc(O)cc2)oc2cc(O)cc(O)c12", "Label value": "label 0"}

Ask: What is the recorded call for this molecule in the test? `CC(=O)CC(=O)Nc1ccc(C)cc1C`
Result: label 0

Ask: Consider next the molecule `NCc1ccco1` in the same way.
Result: label 0

Ask: Consider next the molecule `COc1ccc(N)c([N+](=O)[O-])c1` in the same way.
Result: label 0

Ask: Consider next the molecule `C=CC(=C)CCCC(C)(C)OC(C)=O` in the same way.
Result: label 0
